logD overview
- EXPERIMENTAL_DETAILS: physchem
- CONDITION_LABEL: 1-octanol/aqueous buffer, pH 7.4
- Description: 1-octanol/aqueous buffer partition coefficient, log D of the compound at pH 7.4 by UV-vis/HPLC method
Number, no unit, nothing else.

Study these solved cases before continuing.
[[record]]
smiles_string = "COCCCCc1c(C(=O)N(CC(C)C)[C@@H]2CNC[C@H](C(=O)N3CCOCC3)C2)cnn1-c1ccccc1"
measured_attribute = "logD"
assay_result = 1.78

[[record]]
smiles_string = "COCCCNc1nc(C(C)(C)C)ncc1C(=O)N(CC(C)C)[C@@H]1CNC[C@H](C(=O)N2CCOCC2)C1"
measured_attribute = "logD"
assay_result = 2.99


Consider the compound COCCCCn1c(C(=O)N(CC(C)C)[C@@H]2CNC[C@H](C(=O)N3CCOCC3)C2)nnc1-c1ccccc1 and give its measured logD.
1.79

Consider the compound COCCCCc1c(C(=O)N(CC(C)C)[C@@H]2CNC[C@H](C(=O)N3CCOCC3)C2)ncn1-c1ccccc1 and give its measured logD.
1.84
